Molecular target: T1, 4H2438-bH
T1 chain: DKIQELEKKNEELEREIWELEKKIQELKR
Assay: two-hybrid library CCNG1;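 further: natural log of median RNA to DNA barcode read ratio; higher means stronger binding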
PROPERTY: interaction score

As a guide, the following entries are already answered.
DEIQELEKEIEELKRKNWELKKEIQELER [4H121-bH] = 1.45
DKIQELEKENEELERKIWELKKKNQELER [4H2223-bH] = -0.678

a: DKIQELEKEIEELKRENWELKKKNQELER [4H2143-bH]
b: DKIQELEKKNEELEREIWELEKKIQELKR [4H2438-bH]
Of the two listed items, a and b , which carries the larger interaction score figure? // caller expects the label of the chosen entry
b
(b: -0.05, a: -0.916)

a: DEIQELEKENEELERKNWELEKKIQELKR [4H182-bH]
b: DKIQELEKEIEELKRENWELEKKIQELKR [4H2134-bH]
Of the two listed items, a and b , which carries the larger interaction score figure? // caller expects the label of the chosen entry
b
